Every entry's value here was drawn from patent US20220030868A1.

- Test system: Phakopsora pachyrhizi
- assayNotes: Test A: test suspension sprayed on soybean seedlings one day before inoculation with Phakopsora pachyrhizi spores (Asian soybean rust), visual disease rating
- Format: in vivo
- conditionContext: 10 ppm test suspension, 100 = 100% disease control, 0 = no control
Hi, to clarify the labels: 1 covers Test A rating (disease control) from 10% upward, -1 covers anything below 10%.

                                    compound  categorylabel
 0  CCO/C(=C\Oc1ccc(Cn2ccc(C)n2)cc1)C(F)(F)F             -1
 1   C=CCOC(=O)c1ccc(O/C=C(\OCC)C(F)(F)F)cc1             -1
 2  CCOC(=O)c1cnn(Cc2ccc(C(O)CC(O)(O)C(F)(F)F)cc2)c1 (centres unmarked)             -1
 3  C=C(C)COC(=O)c1cnn(Cc2ccc(OCC3(C(F)(F)F)OCCO3)cc2)c1              1
 4  C=CCOC(=O)c1ccn(Cc2ccc(O/C=C(\OCC)C(F)(F)F)cc2)n1              1
 5  CCO/C(=C\Oc1ccc(Cn2ccc(C(=O)OCC(C)=O)n2)cc1)C(F)(F)F              1
 6  CCCCOC(=O)c1ccn(Cc2ccc(O/C=C(\OCC)C(F)(F)F)cc2)n1              1
 7  CCOC(=O)c1cnn(CCCc2ccc(O/C=C(\OCC)C(F)(F)F)cc2)c1              1
 8  N#CCOC(=O)c1cnn(Cc2ccc(OCC3(C(F)(F)F)OCCO3)cc2)c1              1
 9   C#CCOC(=O)c1ccc(O/C=C(\OCC)C(F)(F)F)cc1             -1
10  CCOC(=O)c1ccc2c(cnn2Cc2ccc(OCC3(C(F)(F)F)OCCO3)cc2)c1              1
11  CCOC(=O)c1cnn(Cc2ccc(OCC3(C(F)(F)F)OCCCO3)cc2)c1              1
12  C=CCOC(=O)c1cnn(Cc2ccc(OCC(O)(O)C(F)(F)F)cc2)c1              1
13  CCOC(=O)c1cnn(Cc2ccc(O/C=C(\OCCOC)C(F)(F)F)cc2)c1             -1
14  CCO/C(=C\Oc1ccc(Cn2cnc(SC)n2)cc1)C(F)(F)F             -1
15     CCOC(=O)c1ccc(O/C=C(\OCC)C(F)(F)F)cc1             -1
16  CCOC(=O)c1cnn(Cc2ccc(OCC(O)(NO)C(F)(F)F)cc2)c1 (centres unmarked)              1
17  O=C(NCC(F)(F)F)c1cnc(Cc2ccc(OCC(O)(O)C(F)(F)F)cc2)s1              1
18  CC(C)COC(=O)NCc1ccc(OCC2(C(F)(F)F)OCCO2)cc1             -1
19  CCO/C(=C\Oc1ccc(Cn2nccc2C(=O)OC)cc1)C(F)(F)F             -1
20  CCOC(=O)c1cnn(Cc2ccc(O/C=C(\OCCO)C(F)(F)F)cc2)c1              1
21   CCO/C(=C\Oc1ccc(CN2CCCC2=O)cc1)C(F)(F)F             -1
22  CCOC(=O)c1cnn(Cc2ccc(COCC3(C(F)(F)F)OCCO3)cc2)c1             -1
23  CCOC(=O)c1cnn(Cc2ccc(OC(C)C(O)(O)C(F)(F)F)cc2)c1 (centres unmarked)             -1
24  CCO/C(=C\Oc1ccc(-c2noc(C(F)(F)F)n2)cc1)C(F)(F)F             -1
25      COC(=O)c1ccc(OCC2(C(F)(F)F)OCCO2)cc1             -1
26  CCOC(=O)c1cnn(C(C)c2ccc(OCC3(C(F)(F)F)OCCO3)cc2)c1 (centres unmarked)              1
27  FC(F)(F)c1nc(-c2ccc(OCC3(C(F)(F)F)OCCO3)cc2)no1             -1
28  CCO/C(=C\Oc1ccc(Cn2cc(C(F)(F)F)cn2)cc1)C(F)(F)F             -1
29  C=C(C)COC(=O)c1ccn(Cc2ccc(O/C=C(\OCC)C(F)(F)F)cc2)n1              1
30  CCOC(=O)C1CCCN(Cc2ccc(O/C=C(\OCC)C(F)(F)F)cc2)C1 (centres unmarked)              1
31  C=CCOC(=O)c1cnn(Cc2cccc(O/C=C(\OCC)C(F)(F)F)c2)c1              1
32  CCOC(=O)c1cc(OC)n(Cc2ccc(O/C=C(\OCC)C(F)(F)F)cc2)n1              1
33     CCO/C(=C\Oc1ccc(Cn2ccnc2)cc1)C(F)(F)F             -1
34  CC#CCOC(=O)c1ccn(Cc2ccc(O/C=C(\OCC)C(F)(F)F)cc2)n1              1
